# assay_name: Measurement of Log P values by HPLC on reversed phase columns (EEC directive 79/831 Annex V.A8)
# Type: physicochemical
# measurement_context: LogP
Field: chromatographic logP. Provide a value for each of the compounds that follow.
Answers are plain numbers.

Worked set:
[[record]]
compound = "Cc1ccc([C@H](N)CC(N)=O)c(C)c1 (racemic)"
quantitative_result = 0.55

[[record]]
compound = "CSc1ncc(Oc2cccc(C(F)(F)F)c2)c(C2=NOC[C@@H](Cc3ccc(C)cc3C)N2)n1 (racemic)"
quantitative_result = 5.09

[[record]]
compound = "CSc1ncc(Br)c(C2=NOC[C@@H](Cc3ccc(C)cc3C)N2)n1 (racemic)"
quantitative_result = 4.05


Query :: Quick check: chromatographic logP of CSc1ncc(Br)c(C(=O)N[C@@H](CON)Cc2ccc(C)cc2Cl)n1 (racemic) ?
Result :: 2.58

Just for reference, patent US12565489B2 is where these values come from.
